Source listed as patent US10941157B2.

system: Collectotrichum graminicola (Cg); experiment: In vitro pathogen growth inhibition assay, Cg; assay type: cell-based; details: 48 h, ≥90% growth inhibition; 48 hours; vs 2% DMSO control; read-out: Compound Concentration (ppm) sufficient for ≥90% inhibition of Cg
quantity kind: IC90 (µg/mL)

compound="COc1ccc(F)cc1CCn1c(=O)n(C(C)(C)C(=O)NC(C)C)c(=O)c2c(C)c(-n3cccn3)sc21 [Compound I-329]" quantity_kind=IC90 endpoint_result=50
compound="CCc1ccc(F)cc1[C@H](Cn1c(=O)n(C(C)(C)C(=O)NC(C)C)c(=O)c2c(C)c(-n3nccn3)sc21)OCCOC [Compound I-247]" quantity_kind=IC90 endpoint_result=0.4
compound="CCOC(=O)c1sc2c(c1C)c(=O)n(C(C)(C)C(=O)NC(C)C)c(=O)n2C[C@H](OCCO)c1cc(F)ccc1OC [Compound I-184]" quantity_kind=IC90 endpoint_result=0.4
compound="COc1ccc(F)cc1[C@H](Cn1c(=O)n([C@H](C)C(=O)N2CCCC2)c(=O)c2c(C)c(-n3cccn3)sc21)OCCC#N [Compound I-314]" quantity_kind=IC90 endpoint_result=50
compound="COc1ccccc1[C@H](Cn1c(=O)n(C(C)(C)C(=O)NC(C)C)c(=O)c2c(C)c(-n3nccn3)sc21)OCCC(=O)NO [Compound I-266]" quantity_kind=IC90 endpoint_result=10
compound="CCOC(=O)c1sc2c(c1C)c(=O)n(C(C)(C)C(N)=O)c(=O)n2C[C@H](OCCC#N)c1cc(F)ccc1OC [Compound I-180]" quantity_kind=IC90 endpoint_result=50

====

Recorded IC90 for the following molecules
test system: Collectotrichum graminicola (Cg); test: In vitro pathogen growth inhibition assay, Cg; type: cell-based; conditions: 48 h, ≥90% growth inhibition; 48 hours; vs 2% DMSO control; read-out: Compound Concentration (ppm) sufficient for ≥90% inhibition of Cg
quantity kind: IC90

molecule="CCc1ccc(F)cc1[C@H](Cn1c(=O)n(C(C)(C)C(=O)NC(C)C)c(=O)c2c(C)c(-n3nccn3)sc21)O[C@H]1C[C@@H](O)C1 [Compound I-280]" endpoint_result="2 µg/mL"
molecule="CCOC(=O)c1sc2c(c1C)c(=O)n(C(C)(C)C(N)=O)c(=O)n2C[C@H](OCCO)c1cc(F)ccc1OC [Compound I-183]" endpoint_result="> 50 µg/mL"
molecule="CCOC(=O)c1sc2c(c1C)c(=O)n(C(C)(C)C(=O)NC(C)C)c(=O)n2C[C@H](OC[C@@H](C)C#N)c1cc(F)ccc1OC [Compound I-258]" endpoint_result="0.08 µg/mL"

====

tested on: Botrtyis cinerea (Bc); experiment: In vitro pathogen growth inhibition assay, Bc; type: cell-based; conditions: 48 h, ≥90% growth inhibition; 48 hours; vs 2% DMSO control; read-out: Compound Concentration (ppm) sufficient for ≥90% inhibition of Bc
Here, each record is paired with measured IC90 data.
quantity kind: IC90 (µg/mL)

smiles_repr=CCOC(=O)c1sc2c(c1C)c(=O)n(C(C)(C)C(=O)N1CCCC1)c(=O)n2C[C@H](OCCC#N)c1cc(F)ccc1OC quantity_kind=IC90 unit_abbrev=µg/mL result_qualifier== endpoint_result=2
smiles_repr=COCCO[C@@H](Cn1c(=O)n(C(C)(C)C(=O)NC2CCC2)c(=O)c2c(C)c(-n3cccn3)sc21)c1cc(F)ccc1OC quantity_kind=IC90 unit_abbrev=µg/mL result_qualifier== endpoint_result=2
smiles_repr=CCNC(=O)C(C)(C)n1c(=O)c2c(C)c(-n3nccn3)sc2n(C[C@H](OCCC#N)c2cc(F)ccc2OC)c1=O quantity_kind=IC90 unit_abbrev=µg/mL result_qualifier== endpoint_result=0.4
smiles_repr=COc1ccc(F)cc1[C@H](Cn1c(=O)n(C(C)(C)C(=O)NC2CCC2)c(=O)c2c(C)c(-n3cccn3)sc21)OCCC#N quantity_kind=IC90 unit_abbrev=µg/mL result_qualifier=≥ endpoint_result=0.4
smiles_repr=COc1ccccc1[C@H](Cn1c(=O)n([C@H](C)C(=O)N(C)C(C)C)c(=O)c2c(C)c(-n3nccn3)sc21)OCCC#N quantity_kind=IC90 unit_abbrev=µg/mL result_qualifier== endpoint_result=2
smiles_repr=COc1ccccc1[C@H](Cn1c(=O)n([C@@H](C)C(=O)N(C)C(C)C)c(=O)c2c(C)c(-n3nccn3)sc21)OCCC#N quantity_kind=IC90 unit_abbrev=µg/mL result_qualifier== endpoint_result=2

====

Entries annotated with measured IC90
system: Botrtyis cinerea (Bc); test: In vitro pathogen growth inhibition assay, Bc; format: cell-based; conditions: 48 h, ≥90% growth inhibition; 48 hours; vs 2% DMSO control; read-out: Compound Concentration (ppm) sufficient for ≥90% inhibition of Bc
quantity kind: IC90 (µg/mL)

smiles_repr=CCOC(=O)c1sc2c(c1C)c(=O)n(C(C)(C)C(=O)NC(C)C)c(=O)n2C[C@H](OCCC#N)c1ccccc1OC quantity_kind=IC90 endpoint_result=0.4
smiles_repr=COc1ccc(F)cc1[C@@H](O)Cn1c(=O)n([C@@H](C)C(=O)N(C)C(C)C)c(=O)c2c(C)c(-n3nccn3)sc21 quantity_kind=IC90 endpoint_result=0.4
smiles_repr=COc1ccccc1[C@H](Cn1c(=O)n(C(C)(C)C(=O)NC(C)C)c(=O)c2c(C)c(-n3cccn3)sc21)OCCC#N quantity_kind=IC90 endpoint_result=0.4
smiles_repr=COc1ccc(F)cc1[C@H](Cn1c(=O)n(C(C)(C)C(N)=O)c(=O)c2c(C)c(-n3cccn3)sc21)OC1CCC(=O)CC1 quantity_kind=IC90 endpoint_result=10
smiles_repr=COCCO[C@@H](Cn1c(=O)n(C(C)(C)C(=O)NC(C)C)c(=O)c2c(C)c(-n3cccn3)sc21)c1cc(F)ccc1OC quantity_kind=IC90 endpoint_result=10
smiles_repr=CCOC(=O)c1sc2c(c1C)c(=O)n(C(C)(C)C(N)=O)c(=O)n2C[C@H](OCCO)c1cc(F)ccc1OC quantity_kind=IC90 endpoint_result=10

====

system: Collectotrichum graminicola (Cg); experiment: In vitro pathogen growth inhibition assay, Cg; assay type: cell-based; conditions: 48 h, ≥90% growth inhibition; 48 hours; vs 2% DMSO control; read-out: Compound Concentration (ppm) sufficient for ≥90% inhibition of Cg
quantity kind: IC90 (µg/mL)

compound="COc1ccc(F)cc1[C@H](Cn1c(=O)n([C@H](C)C(N)=O)c(=O)c2c(C)c(-n3nccn3)sc21)OCC(C)(C)C#N [Compound I-255]" target_or_test_system="Collectotrichum graminicola (Cg)" quantity_kind=IC90 result_qualifier=≥ endpoint_result=10
compound="CCOC(=O)c1sc2c(c1C)c(=O)n([C@@H](C)C(=O)N(C)C(C)C)c(=O)n2C[C@H](OCCC#N)c1cc(F)ccc1OC [Compound I-230]" target_or_test_system="Collectotrichum graminicola (Cg)" quantity_kind=IC90 result_qualifier== endpoint_result=10
compound="Cc1c(-n2nccn2)sc2c1c(=O)n(C(C)(C)C(=O)NC(C)C)c(=O)n2C[C@H](O[C@H]1CC[C@@H](O)CC1)c1cc(F)ccc1OCC#N [Compound I-268]" target_or_test_system="Collectotrichum graminicola (Cg)" quantity_kind=IC90 result_qualifier== endpoint_result=2

====

test system: Botrtyis cinerea (Bc); test: In vitro pathogen growth inhibition assay, Bc; format: cell-based; details: 48 h, ≥90% growth inhibition; 48 hours; vs 2% DMSO control; read-out: Compound Concentration (ppm) sufficient for ≥90% inhibition of Bc
quantity kind: IC90 (µg/mL)

smiles_repr=COc1ccc(F)cc1[C@H](Cn1c(=O)n([C@H](C)C(=O)NC(C)C)c(=O)c2c(C)c(-n3nccn3)sc21)OCC(C)(C)C#N result_qualifier== endpoint_result=0.4
smiles_repr=CCOC(=O)c1sc2c(c1C)c(=O)n(C(C)(C)C(=O)NC(C)C)c(=O)n2C[C@H](OCCS(C)(=O)=O)c1cc(F)ccc1OC result_qualifier== endpoint_result=2
smiles_repr=Cc1c(-n2nccn2)sc2c1c(=O)n(C(C)(C)C(=O)NC(C)C)c(=O)n2C[C@H](OC(C)C)c1cc(F)ccc1CCC#N result_qualifier== endpoint_result=0.4
smiles_repr=CCNC(=O)C(C)(C)n1c(=O)c2c(C)c(-n3cccn3)sc2n(C[C@H](OCCC#N)c2ccccc2OC)c1=O result_qualifier== endpoint_result=10
smiles_repr=CCOC(=O)c1sc2c(c1C)c(=O)n(C(C)(C)C(=O)NC(C)C)c(=O)n2C[C@H](OCCO)c1cc(F)ccc1OC result_qualifier== endpoint_result=2
smiles_repr=CCOC(=O)c1sc2c(c1C)c(=O)n(C(C)(C)C(=O)NC(C)C)c(=O)n2C[C@H](O)c1cc(F)ccc1OC result_qualifier== endpoint_result=0.4
smiles_repr=CCNC(=O)C(C)(C)n1c(=O)c2c(C)c(C(=O)OCC)sc2n(C[C@H](OCCC#N)c2ccccc2OC)c1=O result_qualifier== endpoint_result=2
smiles_repr=COCCO[C@@H](Cn1c(=O)n([C@@H](C)C(=O)NC(C)C)c(=O)c2c(C)c(-n3nccn3)sc21)c1cc(F)ccc1OC result_qualifier== endpoint_result=2
smiles_repr=COc1ccc(Br)cc1[C@H](Cn1c(=O)n(C(C)(C)C(=O)NC(C)C)c(=O)c2c(C)c(-n3nccn3)sc21)OCC(C)(C)C#N result_qualifier== endpoint_result=0.4
smiles_repr=Cc1c(-n2nccn2)sc2c1c(=O)n(C(C)(C)C(=O)NC(C)C)c(=O)n2CCc1cc(F)ccc1OCc1ccccc1 result_qualifier=> endpoint_result=50
smiles_repr=CCOC(=O)c1sc2c(c1C)c(=O)n(C(C)(C)C(=O)NC(C)C)c(=O)n2C[C@H](OC[C@H](C)C#N)c1cc(F)ccc1OC result_qualifier== endpoint_result=0.4
smiles_repr=Cc1c(-n2nccn2)sc2c1c(=O)n(C(C)(C)C(=O)NC1CCC1)c(=O)n2C[C@H](OC(C)C)c1cc(F)ccc1OCC#N result_qualifier== endpoint_result=0.4
smiles_repr=COc1ccc(F)cc1[C@H](Cn1c(=O)n(C(C)(C)C(=O)N2CCCC2)c(=O)c2c(C)c(-n3nccn3)sc21)OC[C@@H](C)O result_qualifier== endpoint_result=2
